Can you tell me IC50 for the items I'm about to list?
target.system: human endothelial constitutive NOS (eNOS) (Homo sapiens (Human), UniProt P29474)
method: Human eNOS enzyme assay, radiometric;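 further: recombinant human eNOS expressed in baculovirus-infected Sf9 cells, activity read as [3H]L-arginine turned into [3H]L-citrulline, the product isolated on ion-exchange resin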
condition.description: read-out: Human eNOS; Table 2b
Answers are plain numbers, in µM.

compound="CN1CCCC1CCn1ccc2ccc(NC(=N)c3cccs3)cc21 (stereo not drawn) [32(−)]" unit_abbrev=µM val=24
compound=N=C(Nc1ccc2ccn(CCN3CCCCC3)c2c1)c1cccs1 unit_abbrev=µM val=3.8

Next compound, please.
Q: Lab note: need IC50 for CN(C)CCc1c[nH]c2ccc(NC(=N)c3cccs3)cc12 on human endothelial constitutive NOS (eNOS) (Homo sapiens (Human), UniProt P29474), anyone have it?
Ans: 26
